E. coli ATCC 25922 data, read-out MIC

Prompt line: Hello, I am looking for reported MIC with E. coli ATCC 25922 for NC[C@@H]1CC[C@@H](N)[C@@H](O[C@H]2[C@H](O[C@@H]3O[C@H](CO)[C@@H](O[C@H]4O[C@@H](CN)CC[C@H]4N)[C@H]3O)[C@@H](O)[C@H](NC(=O)C3(O)CC(N)C3)C[C@@H]2N)O1 (stereo partly shown) . Could you help?
Response line: ≤ 1 µg/mL

Prompt line: Hello, I am looking for reported MIC with E. coli ATCC 25922 for `NC[C@@H]1CC[C@@H](N)[C@@H](O[C@H]2[C@H](O[C@@H]3O[C@H](CO)[C@@H](O[C@H]4O[C@@H](CN)CC[C@H]4N)[C@H]3O)[C@@H](O)[C@H](NC(=O)[C@@H](O)[C@H](F)CN)C[C@@H]2N)O1` . Could you help?
Response line: ≤ 1 µg/mL

Prompt line: Hello, I am looking for reported MIC with E. coli ATCC 25922 for `NCCN(O)C(=O)N[C@@H]1C[C@H](N)[C@@H](O[C@H]2O[C@H](CN)CC[C@H]2N)[C@H](O[C@@H]2O[C@H](CO)[C@@H](O[C@H]3O[C@@H](CN)CC[C@H]3N)[C@H]2O)[C@H]1O` . Could you help?
Response line: ≤ 1 µg/mL

New cases:
Prompt line: Hello, I am looking for reported MIC with E. coli ATCC 25922 for `NC[C@@H]1CC[C@@H](N)[C@@H](O[C@H]2[C@H](O[C@@H]3O[C@H](CO)[C@@H](O[C@H]4O[C@@H](CN)CC[C@H]4N)[C@H]3O)[C@@H](O)[C@H](NCc3cccc(O)c3)C[C@@H]2N)O1` . Could you help?
Response line: 1 to 16 µg/mL
